# Tested on: UACC-257 melanoma
# assay: NCI tumour cell line growth inhibition, 48 h
measured-quantity: TGI

Example molecules with recorded TGI:
CCC1C(=O)C(O)[C@H]2[C@@H]3C(O)CC4=CC(=O)CC[C@]4(C)[C@H]3CC[C@]12C (stereo not given in full)    > 50 µM
CCOC(=O)C1=CC(C)(C(=O)OCC)Nc2c(nc(OC)[nH]c2=O)N1 (stereo not given)    > 10 µM
COc1ccc(-n2c(N)c(C#N)c(C#N)c2-c2ccccc2)cc1    > 100 µM
CC(=O)C1(N=Nc2ccc(S(N)(=O)=O)cc2)CCOC1=O (stereo not given)    > 100 µM

Given the molecule O=C1c2ccccc2C(=O)N1C/C=C/CO , what is its reported TGI?
> 100 µM
